target: rat adrenergic α1B receptor (Rattus norvegicus); construct: rat adrenergic α1B receptor obtained from Wistar Rat liver; from tissue; host or cells: Wistar rat liver; assay: Radioligand binding, adrenergic α1B ([3H]Prazosin); conditions: read-out: Percentage inhibition of ligand binding, Adrenergic α1B (0.1 μM), compound at 0.1 μM; [3H]Prazosin; repeat datapoints each shown
Sequence (P15823 whole entry): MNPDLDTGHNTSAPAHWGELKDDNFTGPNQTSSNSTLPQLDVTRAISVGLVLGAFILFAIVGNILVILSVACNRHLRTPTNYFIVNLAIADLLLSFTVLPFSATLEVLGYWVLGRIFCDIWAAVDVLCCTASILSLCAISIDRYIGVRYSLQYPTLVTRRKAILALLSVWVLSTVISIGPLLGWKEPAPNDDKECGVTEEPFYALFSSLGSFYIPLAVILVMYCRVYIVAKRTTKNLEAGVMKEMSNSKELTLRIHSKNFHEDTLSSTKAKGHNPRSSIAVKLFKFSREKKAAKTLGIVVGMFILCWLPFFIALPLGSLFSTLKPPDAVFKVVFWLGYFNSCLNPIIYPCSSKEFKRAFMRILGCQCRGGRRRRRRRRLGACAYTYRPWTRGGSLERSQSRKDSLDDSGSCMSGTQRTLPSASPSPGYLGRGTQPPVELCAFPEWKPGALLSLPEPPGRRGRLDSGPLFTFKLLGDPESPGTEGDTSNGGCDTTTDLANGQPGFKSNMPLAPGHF
Values of inhibition at 0.1 µM greater than or equal to 20% map to t; values below map to f.

Reference set (6 entries):
COc1ccc(/C(C)=C/n2c3c(c4cc(C)ccc42)CCN(C)CC3)cc1F    t
Cc1ccc2c(c1)c1c(n2CC(C)(O)c2cnccc2C(=O)O)CCN(C)C1 (centres unmarked)    f
Cc1ccc2c(c1)c1c(n2CC(C)(O)c2cccnc2)CNCC1 (single isomer, unassigned) [128a]    t
COc1ccc2c(c1)c1c(n2/C=C(/C)c2ccncc2)CCN(C)C1    t
Cc1ccc(CCn2c3c(c4c(F)ccc(F)c42)CN(C)CC3)cn1    f
CN1CCc2c(n(CC(C)(O)c3ccc(F)cc3)c3ccc(Cl)cc23)CC1 (centres unmarked)    t

IN: Is reported inhibition at 0.1 µM greater than or equal to 20% here: CNC(=O)c1ccc(/C(C)=C/n2c3c(c4cc(C)ccc42)CN(C)CC3)cn1
OUT: t

IN: Is reported inhibition at 0.1 µM greater than or equal to 20% here: Cc1ccc2c(c1)c1c(n2CC(c2ccncc2)N(C)C)CCN(C)C1 (single isomer, unassigned) [150a]
OUT: f
